# ASSAY INFO: In vivo pharmacokinetic property evaluation in CD-1 mice (IV and PO)
# MEASUREMENT CONTEXT: mouse, plasma, 1 mg/kg, IV, 1 mpk
MEASURED ENDPOINT: clearance
Show the value, then the unit it is measured in.

Report clearance, nothing else, for this compound: CC1(C)CCC(CN2CCN(c3ccc(C(=O)NS(=O)(=O)c4cc([N+](=O)[O-])c(NCC5CCOCC5)c5[nH]cnc45)c(Oc4cnc5[nH]ccc5c4)c3)CC2)=C(c2ccc(Cl)cc2)C1 [Compound 2] 10.2 mL/min/kg

---

# ASSAY INFO: Liver microsome metabolic stability in vitro, beagle dog
# Assay type: in vitro ADME
# MEASUREMENT CONTEXT: beagle dog liver microsomes
MEASURED ENDPOINT: half-life at 1 µM (h)
Give the value in h but do not write h after it.

Report half-life at 1 µM, nothing else, for this molecule: CC1(C)CCC(CN2CCN(c3ccc(C(=O)NS(=O)(=O)c4cc([N+](=O)[O-])c(NCC5CCOCC5)c5[nH]cnc45)c(Oc4cnc5[nH]ccc5c4)c3)CC2)=C(c2ccc(Cl)cc2)C1 1.24

---

# ASSAY INFO: Liver microsome metabolic stability in vitro, human
# Type: in vitro ADME
# MEASUREMENT CONTEXT: human, human liver microsomes
MEASURED ENDPOINT: half-life at 1 µM (min)
Give the value in min but do not write min after it.

Report half-life at 1 µM, nothing else, for this compound: CC1(C)CCC(CN2CCN(c3ccc(C(=O)NS(=O)(=O)c4cc([N+](=O)[O-])c(NCC5CCOCC5)c5[nH]cnc45)c(Oc4cnc5[nH]ccc5c4)c3)CC2)=C(c2ccc(Cl)cc2)C1 52.2

Report half-life at 1 µM, nothing else, for this compound: C[C@]12CC[C@H]3[C@@H](CCC4=CC(=O)CC[C@@]43C)[C@@H]1CC[C@@H]2O 8.9

---

Exercise: for every item that follows, state its recorded CLint scaled at 1 µM.
# ASSAY INFO: Liver microsome metabolic stability in vitro, CD-1 mouse
# Type: in vitro ADME
# MEASUREMENT CONTEXT: CD-1 mouse liver microsomes
Give the value in L/h/kg but do not write L/h/kg after it.

Report CLint scaled at 1 µM, nothing else, for this molecule: C[C@]12CC[C@H]3[C@@H](CCC4=CC(=O)CC[C@@]43C)[C@@H]1CC[C@@H]2O 82.1

Report CLint scaled at 1 µM, nothing else, for this molecule: CC1(C)CCC(CN2CCN(c3ccc(C(=O)NS(=O)(=O)c4cc([N+](=O)[O-])c(NCC5CCOCC5)c5[nH]cnc45)c(Oc4cnc5[nH]ccc5c4)c3)CC2)=C(c2ccc(Cl)cc2)C1 4.78

---

# ASSAY INFO: Liver microsome metabolic stability in vitro, human
# Type: in vitro ADME
# MEASUREMENT CONTEXT: human, human liver microsomes
# Method: 3.2 preparation of nicotinamide adenine dinucleotide phosphate cofactor solution: an appropriate amount of NADPH powder was weighed and diluted into 10 mM magnesium chloride solution (working solution concentration: 10 unit/mL; final concentration of reaction system: 1 unit/mL); 3.3 preparation of liver microsomes: an appropriate concentration working solution of liver microsomes (human, SD rat, CD-1 mouse, beagle dog) was prepared in 100 mM potassium phosphate buffer; […]
Exercise: for every item that follows, state its recorded CLint scaled at 1 µM.
Give the value in mL/min/kg but do not write mL/min/kg after it.

Report CLint scaled at 1 µM, nothing else, for this compound: CC1(C)CCC(CN2CCN(c3ccc(C(=O)NS(=O)(=O)c4cc([N+](=O)[O-])c(NCC5CCOCC5)c5[nH]cnc45)c(Oc4cnc5[nH]ccc5c4)c3)CC2)=C(c2ccc(Cl)cc2)C1 23.9

Report CLint scaled at 1 µM, nothing else, for this compound: C[C@]12CC[C@H]3[C@@H](CCC4=CC(=O)CC[C@@]43C)[C@@H]1CC[C@@H]2O 155
